This listing pairs compounds with measured INHIBITION.
- Tested on: Plasmodium berghei
- PROTOCOL_NOTES: Screen against P. berghei liver stage (PbLuc), transformed with Luciferase, at 10uM
- Format: functional, HepG2
- CONDITION_SET: tested at 10 uM
The whole screen tested about 69,000 compounds, of which about 8,600 (12%) showed an effect of 50% or more. Many of the other results were omitted from the sample, so strong results are more common in it than they were.
Your answer should be a plain number; it is taken to be in %.

COMPOUND: CCC(C)NC(=O)c1ccc(NC(=O)CCCn2cncn2)c(C)c1 (configuration not stated)
ENDPOINT: INHIBITION
DATA_VALUE: 5.64
//
COMPOUND: CNC(=O)c1ccc(C(=O)N2CCCCC2Cn2cc(C)cn2)cn1 (configuration not stated)
ENDPOINT: INHIBITION
DATA_VALUE: 24.6

Consider the additional compound presented here.
[Q] So what does the record say about INHIBITION for Cc1ccc(N2CCO[C@H]3CN(C(=O)c4cccc(C)n4)C[C@H]32)nn1 ?
[A] 53
